Value source: the supplement of paper PMC6763611

# System: Plasmodium falciparum NF54
# test method notes: growth inhibition relative to untreated control; higher = more inhibition
# details: 1 µM; MM + chorismate end-products (CM screening medium); 72 h
Let's look at some compounds and their measured growth inhibition.

>  <smiles>
CCc1nc2ccc(Cl)cn2c1C(=O)NCc1ccc(N2CCC(c3ccc(OC(F)(F)F)cc3)CC2)cc1

>  <comparative sign>
<

>  <growth inhibition, %>
0

$$$$
>  <smiles>
O=C(Nc1nnc(S)s1)c1cc(Br)ccc1Cl

>  <comparative sign>
=

>  <growth inhibition, %>
31.8

$$$$
>  <smiles>
C[C@]1(COc2ccc(N3CCC(Oc4ccc(OC(F)(F)F)cc4)CC3)cc2)Cn2cc([N+](=O)[O-])nc2O1

>  <comparative sign>
=

>  <growth inhibition, %>
2.53

$$$$
>  <smiles>
CC(=O)NC[C@@H]1CN(c2ccc(N3CCOCC3)c(F)c2)C(=O)O1

>  <comparative sign>
=

>  <growth inhibition, %>
18.8

$$$$
>  <smiles>
CCOC(=O)c1cc(-c2csc(Nc3c(C)cc(C)cc3C)n2)on1

>  <comparative sign>
=

>  <growth inhibition, %>
12.2

$$$$
>  <smiles>
O=C(Nc1cccc(-c2ccc(NCCCN3CCCC3)nc2)c1)c1ccccc1

>  <comparative sign>
=

>  <growth inhibition, %>
96.3

$$$$
>  <smiles>
Nc1nc(N)c2c3c(sc2n1)CN(Cc1ccccc1)CC3

>  <comparative sign>
=

>  <growth inhibition, %>
55.2

$$$$
>  <smiles>
c1coc(CNc2nc(N3CCCCC3)nc3ccccc23)c1

>  <comparative sign>
=

>  <growth inhibition, %>
68.6

$$$$
>  <smiles>
COc1cc(C2=NCCN2)ccc1-c1cn(-c2cccc(C3=NCCN3)c2)nn1

>  <comparative sign>
=

>  <growth inhibition, %>
68.5

$$$$
